# Lookup of reported inhibition keyed by entry
- Experimental protocol: human hepatoma cell viability loss – ATP luminescence, cytotoxicity control for P. falciparum antimalarial project, primary screen (AID 2303);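 further: 0% = DMSO wells and 100% = digitonin-killed cells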
- Condition details: HepG2 viability, 24-48 h, at 10 µM, hits give high values

[
  {
    "Compound": "CN1CCC(N(Cc2ccc(-c3ccc(Cl)cc3)cc2)C(=O)Cn2c(CCc3cccc(F)c3F)cc(=O)c3ccccc32)CC1",
    "Scale unit": "%",
    "inhibition": 93
  },
  {
    "Compound": "COc1ccc(S(=O)(=O)N2CCOCC2)cc1NC(=O)c1cc2ccccc2o1",
    "Scale unit": "%",
    "inhibition": 8
  },
  {
    "Compound": "Cc1noc(-c2ccccc2)c1NC(=O)N1CCN(CCCCCCNC(=O)/C=C/c2ccc(Cl)c(Cl)c2)CC1",
    "Scale unit": "%",
    "inhibition": 6
  },
  {
    "Compound": "CCc1cn2c3c(cc(C(=O)N[C@@H](Cc4ccccc4)[C@H](O)CNC4CCC4)cc13)N(C)S(=O)(=O)CC2",
    "Scale unit": "%",
    "inhibition": -4
  },
  {
    "Compound": "CCOc1c(N2CCN(CCCCNC(=O)c3ccc(NC(=O)c4ccc(Cl)cc4)cc3)CC2)ccc2ccccc12",
    "Scale unit": "%",
    "inhibition": 18
  },
  {
    "Compound": "Cc1ccc(Nc2nccc(Nc3ccc4c(C)[nH]nc4c3)n2)cc1F",
    "Scale unit": "%",
    "inhibition": 6
  },
  {
    "Compound": "CN1CCC(OC(=O)c2cc3cc(-c4ccccc4)ccc3n2S(=O)(=O)c2ccccc2)CC1",
    "Scale unit": "%",
    "inhibition": 31
  },
  {
    "Compound": "Cc1ncccc1C(=O)Nc1cccc(-c2cccc(-c3nc4ccc(C(F)(F)F)cc4[nH]3)c2)c1",
    "Scale unit": "%",
    "inhibition": 34
  },
  {
    "Compound": "Cc1cc(CN2CC[C@H](NC(=O)c3ccc(Cl)c(Cl)c3)C2)ccc1OCCN1CCNCC1",
    "Scale unit": "%",
    "inhibition": 15
  },
  {
    "Compound": "CCN(CC)CCn1c2ccccc2c2ccc(C(=O)Nc3ccc4sc(C)nc4c3)cc21",
    "Scale unit": "%",
    "inhibition": 97
  },
  {
    "Compound": "O=C(c1ccc(Cl)cc1)C1CCN(CCCOc2ccc3c(c2)CCNCC3)CC1",
    "Scale unit": "%",
    "inhibition": 78
  },
  {
    "Compound": "CCCN(CCC)C(=O)c1cc(C(=O)N[C@@H](Cc2ccccc2)[C@H](O)CNC2CC2)cc(N2CCCCS2(=O)=O)c1",
    "Scale unit": "%",
    "inhibition": -3
  },
  {
    "Compound": "CN(C)c1ccc(CN2CCC(CNC(=O)c3cc(-c4cccc(F)c4)cs3)C2)cc1 (stereo not drawn)",
    "Scale unit": "%",
    "inhibition": 48
  },
  {
    "Compound": "CN(CCS(C)(=O)=O)Cc1ccc(-c2ccc3ncnc(Nc4ccc(OCc5cccc(F)c5)c(Cl)c4)c3c2)o1",
    "Scale unit": "%",
    "inhibition": 25
  },
  {
    "Compound": "Cc1cc(O)c2c3c1C(=O)C=C1C3c3c(c(O)cc(O)c3C(=O)C1(C)C)C2=O (stereo not drawn)",
    "Scale unit": "%",
    "inhibition": 45
  },
  {
    "Compound": "Cn1nc(C(F)(F)F)c(-c2ccc(Br)cc2)c1NC(=O)Nc1ccc(F)cc1F",
    "Scale unit": "%",
    "inhibition": 16
  },
  {
    "Compound": "COc1ccc(Nc2nccc(NCCNC(=O)Nc3cc(C)ccc3C)n2)cc1",
    "Scale unit": "%",
    "inhibition": 10
  },
  {
    "Compound": "O=C(Nc1cccc(C(F)(F)F)c1)NC1CCN(c2ccnc3ccccc23)CC1",
    "Scale unit": "%",
    "inhibition": 23
  }
]
